Data origin: PubChem BioAssay AID1918952

system: LG0703-F948-PDC complex spheroid viability; assay: Anticancer human tumor LG0703-F948-PDC patient-derived lung adenocarcinoma cell line growth inhibition; settings: second compound 3.16 µM; first compound 0.0949 µM; hits give low values;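 further: spheroids exposed to agents for seven days before readout; 100% = DMSO vehicle control wells as normalization base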
# viability, T/C listing for each entry below
EXPERIMENTAL_ENDPOINT: viability, T/C (%)

> print(dat)
                                   compound  data.value
1  COc1cc(C2c3cc4c(cc3C(OC3OC5COC(C)OC5C(O)C3O)C3COC(=O)C23)OCO4)cc(OC)c1O (centres undefined) + NC1CCC(NC2CC2c2ccccc2)CC1         112
2  CCN(c1cc(-c2ccc(CN3CCOCC3)cc2)cc(C(=O)NCc2c(C)cc(C)[nH]c2=O)c1C)C1CCOCC1 + NC1CC1c1ccc(-c2cccc(O)c2)cc1        93.7
3  O=C(C=Cc1cccc(S(=O)(=O)Nc2ccccc2)c1)NO + NC1CCC(NC2CC2c2ccccc2)CC1        42.9
4  NS(=O)(=O)OCC1CC(n2ccc3c(NC4CCc5ccccc54)ncnc32)CC1O (centres undefined) + NC1CCC(NC2CC2c2ccccc2)CC1         112
